target: UniProt O60674; assay: Jak Biochemical HTRF Assay, JAK2; settings: HTRF biochemical assay, GST-tagged catalytic domain; top concentration tested […]
pIC50: −log10 of the molar value.
Heads up, the class ranges for pIC50 are category 1 (below 7), category 2 (7 to below 8), category 3 (8 or more)

// below: answered compounds
# COMPOUND, CLASS_ASSIGNMENT
measured = [
    ("N#CCC1(n2cc(C(N)=O)c(Nc3ccnc(F)c3)n2)CCC(NCC(F)(F)F)CC1 (stereo not drawn) [Example 40-93]", "category 1"),
    ("N#CCC1(n2cc(C(N)=O)c(Nc3ccc(F)cc3)n2)CCC(N2CCC(O)CC2)CC1 (stereo not drawn) [Example 40-27]", "category 1"),
    ("N#CCC1(n2cc(C(N)=O)c(Nc3ccnc(F)c3)n2)CCN(C(=O)C2(C(F)(F)F)CCC2)CC1", "category 2"),
    ("N#CCC1(n2cc(C(N)=O)c(Nc3ccc(F)cc3)n2)CCC(N2CCc3ccccc32)CC1 (stereo not drawn) [Example 40-21]", "category 1"),
    ("N#CCC1(n2cc(C(N)=O)c(Nc3ccc(F)cc3)n2)CCN(c2ccc(C(O)C(F)(F)F)cc2)CC1 (stereo not drawn)", "category 2"),
]

Q. Exam item: assign N#CCC1(n2cc(C(N)=O)c(Nc3ccnc(F)c3)n2)CCC(Nc2cccc(F)c2)CC1 (stereo not drawn) [Example 40-55] to the correct category.
A. category 1

Q. Now this one: Cc1cc(N2CCC(CC#N)(n3cc(C(N)=O)c(Nc4ccc(F)cc4)n3)CC2)ccn1
A. category 1

Q. Now this one: COc1ccc(NC(=O)N2CC(CC#N)(n3cc(C(N)=O)c(Nc4ccccc4)n3)C2)c(C)c1
A. category 1

Q. Now this one: N#CCC1(n2cc(C(N)=O)c(Nc3ccc(F)cc3)n2)CCN(Cc2ccco2)CC1
A. category 2

Q. Now this one: CC(C)NC(=O)N1CCC(CC#N)(n2cc(C(N)=O)c(Nc3ccc(S(=O)(=O)C(F)(F)F)cc3)n2)CC1
A. category 3

Q. Now this one: N#CCC1(n2cc(C(N)=O)c(Nc3ccnc(F)c3)n2)CCN(C(=O)OCC(F)F)CC1
A. category 3

Q. Now this one: N#CCC1(n2cc(C(N)=O)c(Nc3ccccc3)n2)CCN(C(=O)c2cccnc2)CC1
A. category 1

Q. Now this one: N#CC[C@]1(n2cc(C(N)=O)c(Nc3ccc(F)cc3)n2)CC[C@@H](NCc2ccccc2)CC1
A. category 3

###

target: JAK2 (Homo sapiens (Human), UniProt O60674); test: Jak Biochemical HTRF Assay, JAK2; conditions: HTRF biochemical assay, GST-tagged catalytic domain; top concentration tested […]
Sequence (O60674 849-1124): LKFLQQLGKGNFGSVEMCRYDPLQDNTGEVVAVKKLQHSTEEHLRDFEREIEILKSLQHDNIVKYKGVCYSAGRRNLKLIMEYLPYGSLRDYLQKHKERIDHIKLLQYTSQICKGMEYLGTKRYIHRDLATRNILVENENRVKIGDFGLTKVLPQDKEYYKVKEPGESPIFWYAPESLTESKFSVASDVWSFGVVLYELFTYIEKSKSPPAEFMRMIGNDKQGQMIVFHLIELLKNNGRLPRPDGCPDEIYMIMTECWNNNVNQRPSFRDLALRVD
Documented pIC50 across a set of compounds
The value called pIC50 is obtained by taking minus log10 of the concentration in mol/L.

# LINE_NOTATION, TARGET, pIC50
measured = [
    ("N#CCC1(n2cc(C(N)=O)c(Nc3ccccc3)n2)CCN(CC#Cc2ccccc2)CC1", "JAK2 (Homo sapiens (Human), UniProt O60674)", 6.13),
    ("C[C@@H](O)CC(=O)N1CCC(CC#N)(n2cc(C(N)=O)c(Nc3ccnc(F)c3)n2)CC1", "JAK2 (Homo sapiens (Human), UniProt O60674)", 7.33),
    ("N#CCCCN1CCC(CC#N)(n2cc(C(N)=O)c(Nc3ccccc3)n2)CC1", "JAK2 (Homo sapiens (Human), UniProt O60674)", 6.50),
    ("Cc1ccc(NC(=O)N2CC(CC#N)(n3cc(C(N)=O)c(Nc4ccccc4)n3)C2)cc1C", "JAK2 (Homo sapiens (Human), UniProt O60674)", 6.72),
    ("CC(C)[C@@H](O)C(=O)N1CCC(CC#N)(n2cc(C(N)=O)c(Nc3ccnc(F)c3)n2)CC1", "JAK2 (Homo sapiens (Human), UniProt O60674)", 6.86),
]

Q. Please give the measured pIC50 for this compound: CC(C)(C)COC(=O)N1CCC(CC#N)(n2cc(C(N)=O)c(Nc3ccccc3)n2)CC1
A. 6.60

Q. Now this one: Cc1ccc(N2CCC(CC#N)(n3cc(C(N)=O)c(Nc4ccc(F)cc4)n3)CC2)cn1
A. 8.10

Q. Now this one: N#CCC1(n2cc(C(N)=O)c(Nc3ccnc(F)c3)n2)CCN(C(=O)C2(C(F)(F)F)CC2)CC1
A. 7.40

###

Documented pIC50 across a set of compounds
target: JAK1 (Homo sapiens (Human), UniProt P23458); test: Jak Biochemical HTRF Assay, JAK1; conditions: HTRF biochemical assay, GST-tagged catalytic domain; top concentration tested […]; read-out: JAK1 IC50
Sequence (P23458 875-1153): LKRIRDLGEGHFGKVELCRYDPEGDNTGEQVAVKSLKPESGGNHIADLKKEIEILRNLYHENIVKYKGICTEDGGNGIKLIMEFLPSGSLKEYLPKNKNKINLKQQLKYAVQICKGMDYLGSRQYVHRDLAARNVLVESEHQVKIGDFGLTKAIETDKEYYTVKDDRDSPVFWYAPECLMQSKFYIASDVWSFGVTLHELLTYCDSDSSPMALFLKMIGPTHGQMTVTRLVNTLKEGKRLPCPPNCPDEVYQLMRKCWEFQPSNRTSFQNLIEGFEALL
The value called pIC50 is obtained by taking minus log10 of the concentration in mol/L.

Here is how some compounds turned out for pIC50.
# COMPOUND, EXPERIMENTAL_RESULT
rows = [
    ("CC(C)(C)OC(=O)N1CCC(CC#N)(n2cc(C(N)=O)c(Nc3ccc(S(N)(=O)=O)cc3)n2)CC1 [Example 9-20]", 10.00),
    ("COCC(=O)N1CCC(CC#N)(n2cc(C(N)=O)c(Nc3ccnc(F)c3)n2)CC1 [Example 34-42]", 8.52),
    ("N#CCC1(n2cc(C(N)=O)c(Nc3ccc(C4CCC4)nc3)n2)CCN(C(=O)OCC(F)F)CC1 [Example 9-38]", 9.52),
]

Q. Please give the measured pIC50 for this compound: CN1CCC(COC(=O)N2CCC(CC#N)(n3cc(C(N)=O)c(Nc4ccccc4)n3)CC2)CC1 [Example 30-44]
A. 7.96

###

target: JAK2 (Homo sapiens (Human)); experiment: Jak Biochemical HTRF Assay, JAK2; conditions: HTRF biochemical assay, GST-tagged catalytic domain; top concentration tested […]
MEASURE: IC50 (nM)
Answer with a number only, understood to be in nM.

Here is how some compounds turned out for IC50.
# COMPOUND, U, IC50
data = [
    ("N#CCC1(n2cc(C(N)=O)c(Nc3ccc(F)cc3)n2)CCN(Cc2ccccc2)CC1", "nM", 13),
    ("N#CCC1(n2cc(C(N)=O)c(Nc3ccc(F)cc3)n2)CCC(NCC2CC2)CC1 (stereo not drawn)", "nM", 667),
]

Q. Please give the measured IC50 for this compound: CC(C)(C)OC(=O)N1CCC(CC#N)(n2cc(C(N)=O)c(Nc3cccc(-c4ccc(O)cc4)c3)n2)CC1
A. 293

Q. Now this one: N#CCC1(n2cc(C(N)=O)c(Nc3ccccc3)n2)CCN(C(=O)c2cccc(N3CCOCC3)c2)CC1
A. 1050

Q. Now this one: N#CCC1(n2cc(C(N)=O)c(Nc3ccc(S(=O)(=O)C(F)(F)F)cc3)n2)CCN(C(=O)Nc2ccc(C#N)cc2)CC1
A. 0.5

Q. Now this one: Cc1ccc(NC(=O)N2CC(CC#N)(n3cc(C(N)=O)c(Nc4ccccc4)n3)C2)cc1F
A. 114

Q. Now this one: Cn1nccc1CN1CCC(CC#N)(n2cc(C(N)=O)c(Nc3ccnc(F)c3)n2)CC1
A. 37

###

Documented IC50 across a set of compounds
molecular target: JAK1 (Homo sapiens (Human)); experiment: Jak Biochemical HTRF Assay, JAK1; conditions: HTRF biochemical assay, GST-tagged catalytic domain; top concentration tested […]; read-out: JAK1 IC50
Answer with a number only, understood to be in nM.

Here is how some compounds turned out for IC50.
# COMPOUND, MEASURE, EXPERIMENTAL_RESULT
rows = [
    ("COc1ccc(-c2cccc(Nc3nn(C4(CC#N)CCN(C(=O)OC(C)(C)C)CC4)cc3C(N)=O)c2)cc1 [Example 15-4]", "IC50", 41),
    ("N#CCC1(n2cc(C(N)=O)c(Nc3ccnc(F)c3)n2)CCN(Cc2ccc(Cl)cc2)CC1 [Example 22-71]", "IC50", 0.1),
    ("CC1(C(=O)N2CCC(CC#N)(n3cc(C(N)=O)c(Nc4ccnc(F)c4)n3)CC2)CCC1 [Example 34-60]", "IC50", 8),
    ("COC(C)COC(=O)N1CCC(CC#N)(n2cc(C(N)=O)c(Nc3ccc(F)cc3)n2)CC1 (stereo not shown) [Example 30-24]", "IC50", 4),
    ("CC(C)(C)OC(=O)N1CCC(CC#N)(n2cc(C(N)=O)c(Nc3ccnc(CO)c3)n2)CC1 [Example 9-18]", "IC50", 6),
]

Q. Please give the measured IC50 for this compound: N#CCC1(n2cc(C(N)=O)c(Nc3ccccc3)n2)CCN(Cc2cccnc2)CC1 [Example 21-2]
A. 3

Q. Now this one: C[C@@H]1C[C@](CC#N)(n2cc(C(N)=O)c(Nc3ccccc3)n2)CCN1C(=O)OC(C)(C)C (racemic) [Example 2-11]
A. 29
